assay: Cytotoxicity against human HEL cells assessed as alteration of cell morphology; type: cell-based
assay.endpoint: MCC (µg/mL)

{"smiles.text": "C=CCNC(=S)Nc1ccc(OCc2n[nH]c(=S)n2CC=C)cc1", "assay.endpoint": "MCC", "cmp": ">", "reported": 400}
{"smiles.text": "S=C(Nc1ccc(Cl)cc1)Nc1ccc(-c2n[nH]c(=S)n2-c2ccccc2)cc1", "assay.endpoint": "MCC", "cmp": "≥", "reported": 16}
{"smiles.text": "S=C(Nc1ccccc1)Nc1ccc(OCc2n[nH]c(=S)n2-c2ccccc2)cc1", "assay.endpoint": "MCC", "cmp": "=", "reported": 400}
{"smiles.text": "C=CCNC(=S)Nc1ccc(-c2nnc(SCc3ccc(Cl)cc3Cl)n2C)cc1", "assay.endpoint": "MCC", "cmp": "=", "reported": 80}
{"smiles.text": "C=CCn1c(COc2ccc(NC(=S)NC)cc2)n[nH]c1=S", "assay.endpoint": "MCC", "cmp": ">", "reported": 400}
{"smiles.text": "Cn1c(-c2ccc(NC(=S)Nc3ccccc3)cc2)n[nH]c1=S", "assay.endpoint": "MCC", "cmp": "=", "reported": 400}

====

The reader will find reported IC50 values listed item by item below.
system: Human immunodeficiency virus 1; assay: Antiviral activity against HIV1 3B in human MT4 cells assessed as protection against virus-induced cytopathogenicity by MTT assay; type: functional, organism-based; details: Human immunodeficiency virus 1, 3B, MT4

{"smiles.text": "C=CCNC(=S)Nc1ccc(OCc2n[nH]c(=S)n2C)cc1", "IC50": "> 107 µg/mL"}
{"smiles.text": "C=CCNC(=S)Nc1ccc(OCc2n[nH]c(=S)n2CC)cc1", "IC50": "> 72.3 µg/mL"}
{"smiles.text": "CNC(=S)Nc1ccc(-c2n[nH]c(=S)n2-c2ccccc2)cc1", "IC50": "> 94.4 µg/mL"}
{"smiles.text": "Nc1ccc(OCc2n[nH]c(=S)n2-c2ccccc2)cc1", "IC50": "> 125 µg/mL"}
{"smiles.text": "Cn1c(COc2ccc(N)cc2)n[nH]c1=S", "IC50": "> 125 µg/mL"}
{"smiles.text": "CCCCCCNC(=S)Nc1ccc(-c2n[nH]c(=S)n2C)cc1", "IC50": "> 8.82 µg/mL"}
{"smiles.text": "CCn1c(COc2ccc(NC(=S)NC)cc2)n[nH]c1=S", "IC50": "> 68.1 µg/mL"}
{"smiles.text": "CCCCCCNC(=S)Nc1ccc(-c2n[nH]c(=S)n2-c2ccccc2)cc1", "IC50": "> 3.99 µg/mL"}
{"smiles.text": "C=CCNC(=S)Nc1ccc(-c2n[nH]c(=S)n2CC=C)cc1", "IC50": "> 65.4 µg/mL"}
{"smiles.text": "CCNC(=S)Nc1ccc(OCc2n[nH]c(=S)n2CC)cc1", "IC50": "> 88.3 µg/mL"}
{"smiles.text": "S=C(Nc1ccccc1)Nc1ccc(OCc2n[nH]c(=S)n2-c2ccccc2)cc1", "IC50": "> 30.6 µg/mL"}
{"smiles.text": "CCNC(=S)Nc1ccc(OCc2n[nH]c(=S)n2C)cc1", "IC50": "> 107 µg/mL"}
{"smiles.text": "C=CCNC(=S)Nc1ccc(-c2n[nH]c(=S)n2CCCCCC)cc1", "IC50": "> 10.1 µg/mL"}
{"smiles.text": "CCNC(=S)Nc1ccc(-c2n[nH]c(=S)n2C)cc1", "IC50": "> 82.4 µg/mL"}
{"smiles.text": "S=C(Nc1ccccc1)Nc1ccc(-c2n[nH]c(=S)n2-c2ccccc2)cc1", "IC50": "> 28.6 µg/mL"}
{"smiles.text": "Cn1c(COc2ccc(NC(=S)Nc3ccccc3)cc2)n[nH]c1=S", "IC50": "> 98.9 µg/mL"}
{"smiles.text": "CCn1c(COc2ccc(N)cc2)n[nH]c1=S", "IC50": "> 125 µg/mL"}
{"smiles.text": "C=CCNC(=S)Nc1ccc(-c2n[nH]c(=S)n2CCc2ccccc2)cc1", "IC50": "> 13 µg/mL"}
{"smiles.text": "C=CCNC(=S)Nc1ccc(-c2n[nH]c(=S)n2CC)cc1", "IC50": "> 57 µg/mL"}
{"smiles.text": "C=CCNC(=S)Nc1ccc(OCc2n[nH]c(=S)n2-c2ccccc2)cc1", "IC50": "> 92.3 µg/mL"}
{"smiles.text": "CCNC(=S)Nc1ccc(OCc2n[nH]c(=S)n2-c2ccccc2)cc1", "IC50": "> 15 µg/mL"}
{"smiles.text": "C=CCNC(=S)Nc1ccc(-c2n[nH]c(=S)n2-c2ccccc2)cc1", "IC50": "> 55.1 µg/mL"}
{"smiles.text": "CNC(=S)Nc1ccc(-c2n[nH]c(=S)n2C)cc1", "IC50": "> 80.3 µg/mL"}
{"smiles.text": "C=CCn1c(-c2ccc(NC(=S)Nc3ccccc3)cc2)n[nH]c1=S", "IC50": "> 19.4 µg/mL"}
{"smiles.text": "C=CCNC(=S)Nc1ccc(OCc2n[nH]c(=S)n2CC=C)cc1", "IC50": "> 66.5 µg/mL"}
{"smiles.text": "C=CCn1c(COc2ccc(NC(=S)NCC)cc2)n[nH]c1=S", "IC50": "> 76.5 µg/mL"}
{"smiles.text": "CNC(=S)Nc1ccc(OCc2n[nH]c(=S)n2C)cc1", "IC50": "> 112 µg/mL"}
{"smiles.text": "C=CCNC(=S)Nc1ccc(-c2nnc(SCc3ccc(Cl)cc3Cl)n2-c2ccccc2)cc1", "IC50": "> 65.3 µg/mL"}
{"smiles.text": "S=C(Nc1ccc(Cl)cc1)Nc1ccc(-c2n[nH]c(=S)n2-c2ccccc2)cc1", "IC50": "> 10.3 µg/mL"}
{"smiles.text": "CCNC(=S)Nc1ccc(-c2n[nH]c(=S)n2-c2ccccc2)cc1", "IC50": "> 91.3 µg/mL"}
{"smiles.text": "C=CCNC(=S)Nc1ccc(-c2n[nH]c(=S)n2C)cc1", "IC50": "> 78.2 µg/mL"}
{"smiles.text": "C=CCn1c(COc2ccc(NC(=S)Nc3ccccc3)cc2)n[nH]c1=S", "IC50": "> 20.2 µg/mL"}
{"smiles.text": "CNC(=S)Nc1ccc(OCc2n[nH]c(=S)n2-c2ccccc2)cc1", "IC50": "> 83.5 µg/mL"}
{"smiles.text": "C=CCNC(=S)Nc1ccc(-c2nnc(SCc3ccc(Cl)cc3Cl)n2C)cc1", "IC50": "> 116 µg/mL"}
{"smiles.text": "CCCCCCNC(=S)Nc1ccc(-c2n[nH]c(=S)n2CCCCCC)cc1", "IC50": "> 1.71 µg/mL"}
{"smiles.text": "C=CCn1c(-c2ccc(NC(=S)NC)cc2)n[nH]c1=S", "IC50": "> 80.9 µg/mL"}
{"smiles.text": "CCCCCCNC(=S)Nc1ccc(-c2n[nH]c(=S)n2CC)cc1", "IC50": "> 2.58 µg/mL"}
{"smiles.text": "C=CCn1c(COc2ccc(N)cc2)n[nH]c1=S", "IC50": "> 125 µg/mL"}
